System: RPMI-8226
Test: NCI tumour cell line growth inhibition, 48 h
Activity calls are given as the source filed them. No stated cut-off is given here; in the data, active = GI50 up to about 1.1 µM and inactive = higher.
Measurement label: GI50

Known GI50 results, listed for orientation:
C=C[C@@H](C)[C@]1(C(=O)OC)CCCC12OCCO2; 72.9 µM (inactive)
NC(=S)N1N=C(c2ccccc2O)CC1c1ccccc1 (centres undefined); 11.6 µM (inactive)
N#CC(Cc1ccccc1Br)N(CCC1=CCCCC1)C(c1ccccc1)c1ccccc1 (centres undefined); 31.7 µM (inactive)
COc1cc2ccnc3c2c(c1O)N(C)C=C3; 4.18 µM (inactive)
O=c1oc2ccc3ccccc3c2cc1-c1cn2ccsc2n1; 11.5 µM (inactive)
O=C1c2ccccc2N2OC3(N4CCCC4)CCCCC3C12c1ccccc1 (centres undefined); > 100 µM (inactive)
COc1cc(O)c(/C=N/N=C(\N)NO)c(OC)c1; > 10 µM (inactive)
COc1cccc(C2c3cc4c(cc3OC(O)(CO)C2C(=O)O)OCO4)c1.COc1cccc(C2c3cc4c(cc3OC3(O)COC(=O)C23)OCO4)c1 (centres undefined); 53 µM (inactive)

Continue with the next compound.
### Prompt Bench note: what GI50 did `Cc1cc(Br)ccc1NC1=CC(=O)C(=O)c2ccccc21` show?
### Response 36.9 µM (inactive)

----------
Tested on: SK-MEL-28
Assay: NCI tumour cell line growth inhibition, 48 h
Calls of active or inactive are those of the source. No stated cut-off is given here; in the data, active = GI50 up to about 1.1 µM and inactive = higher.
Measurement label: GI50

Known GI50 results, listed for orientation:
COc1cc(/C=C2\C(=O)N(c3cccc(Cl)c3)C(c3ccccc3)S2(=O)=O)cc(OC)c1OC (centres undefined); 69.2 µM (inactive)
CN(C)C(=S)/N=c1\ssc(=S)n1C; > 100 µM (inactive)
CC1(C)CC(=O)C2=C(C1)OC1=C(CC(C)(C)CC1=O)C2c1ccccc1[N+](=O)[O-] (centres undefined); > 100 µM (inactive)
C=C1C(=O)OC2(C)C3CCC(C3)C12 (centres undefined); > 100 µM (inactive)
ClCC1(CCl)COC1; > 100 µM (inactive)
Cc1cnc(/N=c2\sc(C)cn2-c2ncc(C)s2)s1; > 100 µM (inactive)

Continue with the next compound.
### Prompt Lab note: need GI50 with SK-MEL-28 for entry `O=[N+]([O-])c1ccc2[nH]c3c(-c4ccccc4)nccc3c2c1` , please look it up.
### Response 29.2 µM (inactive)

----------
Test system: A549
Test: NCI tumour cell line growth inhibition, 48 h
Counter-ions that a name gives are not always drawn. Activity calls are given as the source filed them. Rule as the data show it: active = GI50 up to about 1.1 µM and inactive = higher.
This section presents compounds with their documented GI50 values.

Known GI50 results, listed for orientation:
CC(=O)CC1(OC(=O)C2C(C=C(C)C)C2(C)C)C(=O)Nc2ccccc21 (stereo not given); > 100 µM (inactive)
CC/C(=C(\c1ccccc1)c1ccc(OCCN(C)C)cc1)c1ccccc1 [TAMOXIFEN CITRATE]; 5.79 µM (inactive)
O=C(/C=C/c1cccc(Br)c1)c1ccc(Cl)cc1; 16.8 µM (inactive)
CCCCCC/C=C\CCCCCCCCCc1cccc(OC)c1O; > 100 µM (inactive)
Cc1oncc1/N=C1\C=C(O)C(=O)c2ccccc21; 3.9 µM (inactive)
CC1(C)CC(=O)C2=C(C1)OC1=C(CC(C)(C)CC1=O)C2c1ccccc1[N+](=O)[O-] (stereo not given); > 100 µM (inactive)
C/C(=N\NC(=S)N1CCCCCC1)c1nccnc1C; 0.0331 µM (active)
CC1(C)CC[C@]2(C(=O)O)CCC3(C)C(=CCC4[C@@]5(C)CC[C@H](OC6OCC(O)C(O)C6OC6OC(CO)C(O)C(O)C6O)C(C)(C)C5CC[C@]43C)C2C1 (stereo not given in full); 1.86 µM (inactive)

### Prompt Bench note: what GI50 did `C[Si](C)(C)/C=C/CN1C(=O)CCC1=O` show?
### Response > 100 µM (inactive)

### Prompt Bench note: what GI50 did `N#C/N=N/c1cc(Cl)c(/N=N/C#N)cc1Cl` show?
### Response > 100 µM (inactive)

### Prompt Bench note: what GI50 did COC(=O)[C@H]1CC(=O)C=C2CCCC21 (stereo not given in full) show?
### Response > 100 µM (inactive)

### Prompt Bench note: what GI50 did `O=C(OCC(Cl)(Cl)Cl)N1CC[C@H](C2CCCCC2)C1` show?
### Response 14.9 µM (inactive)

### Prompt Bench note: what GI50 did `COc1cccc(Nc2nc(NNC(=O)Cc3ccccc3)nc(NNC(=O)c3ccncc3)n2)c1` show?
### Response > 10 µM (inactive)

### Prompt Bench note: what GI50 did `Nc1n[c-](N)[n+](=O)c(N)c1NCO` show?
### Response > 100 µM (inactive)

### Prompt Bench note: what GI50 did `C(=N\c1ccc(-c2nc3ccccc3s2)cc1)/c1cccs1` show?
### Response 57.7 µM (inactive)

----------
Tested on: NCI-H226
Assay: NCI tumour cell line growth inhibition, 48 h
Activity calls are given as the source filed them. Rule as the data show it: active = GI50 up to about 1.1 µM and inactive = higher.
Measurement label: GI50

Known GI50 results, listed for orientation:
CC(C)=CCC/C(C)=C/COc1c2ccoc2cc2oc(=O)ccc12; 30.1 µM (inactive)
O=C(N/C(=C\c1ccc(Br)cc1)c1nc2ccccc2s1)c1ccccc1; > 100 µM (inactive)
CCOC(=O)[C@@H]1[C@@H]2NC(=O)N[C@@]1(C)Oc1ccccc12; > 100 µM (inactive)
Oc1cc(F)cc2cccnc12; 3.54 µM (inactive)
O=[N+]([O-])c1ccc2[nH]c3c(-c4ccccc4)nccc3c2c1; 9.75 µM (inactive)
C=C[C@@H](C)[C@]1(C(=O)OC)CCCC12OCCO2; > 100 µM (inactive)
C/C=C/C(C/C=C(\C)CO[Si](C)(C)C(C)(C)C)O[Si](C)(C)C(C)(C)C (stereo not drawn); > 100 µM (inactive)
CN(C)CCCn1c(-c2cc(C(C)(C)C)c(O)c(C(C)(C)C)c2)cs/c1=N\c1ccccc1; 1.98 µM (inactive)

### Prompt Lab note: need GI50 with NCI-H226 for entry `O=c1cc(N2CCCC2)[nH]c(=O)n1-c1ccc(F)cc1` , please look it up.
### Response 20.3 µM (inactive)

### Prompt Lab note: need GI50 with NCI-H226 for entry `Nc1nc(Cl)cc(Oc2ccc(Cl)cc2)n1` , please look it up.
### Response > 100 µM (inactive)

### Prompt Lab note: need GI50 with NCI-H226 for entry `C=CCSC1=N/C(=C\c2ccco2)C(=O)N1CC=C` , please look it up.
### Response 34.4 µM (inactive)

### Prompt Lab note: need GI50 with NCI-H226 for entry `O=c1[nH]c(=O)n(Cc2ccccc2CO)cc1Sc1ccccc1` , please look it up.
### Response 22.4 µM (inactive)

### Prompt Lab note: need GI50 with NCI-H226 for entry CCc1cccc(C(C)CC)c1NC(=O)C(=O)C(CC(=O)Nc1ccc(Cl)c(Cl)c1)C(=O)OC (stereo not drawn) , please look it up.
### Response > 100 µM (inactive)

### Prompt Lab note: need GI50 with NCI-H226 for entry O=C(NN1C(=O)CS(=O)(=O)C1c1ccc(Cl)c(Cl)c1)c1ccncc1 (stereo not drawn) , please look it up.
### Response > 100 µM (inactive)

### Prompt Lab note: need GI50 with NCI-H226 for entry `COc1cccc(Nc2nc(NNC(=O)Cc3ccccc3)nc(NNC(=O)c3ccncc3)n2)c1` , please look it up.
### Response > 100 µM (inactive)

### Prompt Lab note: need GI50 with NCI-H226 for entry CCOC(=O)Cc1nc2c(N)ncnc2n1C1OC(COC(C)=O)C(OC(C)=O)C1OC(C)=O (stereo not drawn) , please look it up.
### Response > 100 µM (inactive)

### Prompt Lab note: need GI50 with NCI-H226 for entry O=C1c2ccccc2N2OC3(N4CCCC4)CCCCC3C12c1ccccc1 (stereo not drawn) , please look it up.
### Response 37.3 µM (inactive)

### Prompt Lab note: need GI50 with NCI-H226 for entry `Cn1c(=O)sc2cc(C(=S)N3CCCCC3)ccc21` , please look it up.
### Response 18.6 µM (inactive)

### Prompt Lab note: need GI50 with NCI-H226 for entry `CCCCCCOc1ccc(NC2=C(Cl)C(=O)c3ncccc3C2=O)cc1` , please look it up.
### Response 5.61 µM (inactive)

### Prompt Lab note: need GI50 with NCI-H226 for entry CN1CCc2ccccc2C(C(=O)c2ccc3c(c2)OCO3)C1=O (stereo not drawn) , please look it up.
### Response 99.5 µM (inactive)

### Prompt Lab note: need GI50 with NCI-H226 for entry `C(=N\c1ccc(-c2nc3ccccc3s2)cc1)/c1cccs1` , please look it up.
### Response 54.2 µM (inactive)

### Prompt Lab note: need GI50 with NCI-H226 for entry `CN(C)CCNC(=O)c1cccc2ccc(-c3ccc(F)cc3)nc12` , please look it up.
### Response 3.53 µM (inactive)

### Prompt Lab note: need GI50 with NCI-H226 for entry `N#C/N=N/c1cc(Cl)c(/N=N/C#N)cc1Cl` , please look it up.
### Response > 100 µM (inactive)
